target: 2-Hydroxyacid oxidase 2 (Homo sapiens) (UniProt Q9NYQ3); assay: Inhibition of human Hao2-mediated oxidation of 2-hydroxyoctanoic acid assessed as proportionate release of H2O2 at 1 uM
Sequence (Q9NYQ3 whole entry): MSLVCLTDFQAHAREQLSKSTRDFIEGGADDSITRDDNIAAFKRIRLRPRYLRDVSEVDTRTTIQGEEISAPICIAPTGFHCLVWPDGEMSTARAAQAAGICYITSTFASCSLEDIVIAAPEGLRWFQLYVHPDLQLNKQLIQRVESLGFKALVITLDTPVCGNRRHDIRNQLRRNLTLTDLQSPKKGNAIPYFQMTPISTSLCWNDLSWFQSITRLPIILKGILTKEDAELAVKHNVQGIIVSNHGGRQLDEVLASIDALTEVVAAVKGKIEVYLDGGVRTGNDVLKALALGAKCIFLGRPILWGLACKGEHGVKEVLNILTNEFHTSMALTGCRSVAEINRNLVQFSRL
t means recorded inhibition is 5% or above; f means it is below 5%.

molecule smiles | assigned label
Cc1n[nH]c(C(=O)O)c1Cc1cccc(-c2ccc(OC(F)(F)F)cc2)c1 | t
Cc1n[nH]c(C(=O)O)c1Cc1cccc(-c2cccnc2)c1 | t
Cc1n[nH]c(C(=O)O)c1CCc1cccc(-c2ccc(F)cc2)c1 | t
Cc1n[nH]c(C(=O)NS(C)(=O)=O)c1Cc1cccc(-c2ccc(F)cc2)c1 | t
Cc1c(Cc2cccc(-c3ccc(F)cc3)c2)c(C(=O)O)nn1C | f
Cc1n[nH]c(C(=O)O)c1Cc1ccc(C#N)cc1 | f
O=C(O)c1[nH]nc(Cc2ccccc2)c1Cc1cccc(-c2ccc(F)cc2)c1 | t
Cc1n[nH]c(C(=O)O)c1Cc1cccc2ccccc12 | t
Cc1n[nH]c(C(=O)Nc2nnn[nH]2)c1Cc1cccc(-c2ccc(F)cc2)c1 | f
Cc1n[nH]c(C(=O)O)c1Cc1cccc(C(=O)O)c1 | f
Cc1n[nH]c(C(=O)O)c1Cc1cccc(Oc2ccccc2)c1 | t
Cc1n[nH]c(C(=O)O)c1Cc1ccccc1-c1ccc(F)cc1 | t
Cc1n[nH]c(C(=O)O)c1Cc1cccc(C(N)=O)c1 | t
Cc1n[nH]c(C(=O)O)c1Cc1cccc(-c2ccc(C(=O)O)cc2)c1 | f
Cc1n[nH]c(C(=O)O)c1Cc1cccc(-c2ccc(C#N)cc2)c1 | t
CCOc1n[nH]c(C(=O)O)c1Cc1cccc(-c2ccc(F)cc2)c1 | f
Cc1n[nH]c(C(=O)O)c1Cc1cccc(-c2cccc(F)c2)c1 | t
Cc1n[nH]c(C(=O)O)c1Cc1ccc(C(N)=O)cc1 | f
Cc1n[nH]c(C(=O)O)c1Cc1cccc(OC(F)(F)F)c1 | f
O=C(O)c1[nH]nc(-c2ccccc2)c1Cc1cccc(-c2ccc(F)cc2)c1 | f
